# target or test system: T1, interleukin 6 (IL-6) (UniProt P05231 30-212)
# T1 construct: also called b-IL-6
# assay name: SPR, Biacore T200; target immobilized on CM5, His6-tagged Y variant injected; 1:1 Langmuir
Group membership follows koff per the scheme class A = under 0.002 s⁻¹, class B = from 0.002 s⁻¹ up to 0.003 s⁻¹, class C = 0.003 s⁻¹ and over

Solved cases below.
binder	label class
Y02447 (designed binder, From library Ylib002Naive.I) MGSSHHHHHHGSSLAEAKEAAIAELDSKGVGAHGIKEIQDAILVEIVQLLKQAILAALPA	class A
Y02465 (designed binder, From library Ylib002Naive.I) MGSSHHHHHHGSSLAEAKEAAIAELDSKGVGANHIKAIQHAQFVEIVQLLKQAILAVLPA	class B
Y02700 (designed binder, Y02415 with I9L) MGSSHHHHHHGSSLAEAKEAALAELDSKGVGAGDIKDIQDALLVEIVQLLKQAILAVLPA	class B
Y02444 (designed binder, From library Ylib002Naive.I; also called Y002444) MGSSHHHHHHGSSLAEAKEAAIAELDSKGVGAVEIKQIQEALLVEIVQLLKQAILAVLPA	class C
Y02415 (designed binder, From library Ylib002Naive.I) MGSSHHHHHHGSSLAEAKEAAIAELDSKGVGAGDIKDIQDALLVEIVQLLKQAILAVLPA	class A
Y02701 (designed binder, Y02415 with K15Y) MGSSHHHHHHGSSLAEAKEAAIAELDSYGVGAGDIKDIQDALLVEIVQLLKQAILAVLPA	class C

Query: Quick check: band for Y02374 (designed binder, From library Ylib002Naive.I) MGSSHHHHHHGSSLAEAKEAAIAELDSKGVGAAEIKRIQAAELVEIVQLLKQAILAVLPA
Response: class A

Query: Quick check: band for Y02703 (designed binder, Y02444 with K15Y + Q26E) MGSSHHHHHHGSSLAEAKEAAIAELDSYGVGAVEIKQIEEALLVEIVQLLKQAILAVLPA
Response: class B

Query: Quick check: band for Y02702 (designed binder, Y02415 with Q26E) MGSSHHHHHHGSSLAEAKEAAIAELDSKGVGAGDIKDIEDALLVEIVQLLKQAILAVLPA
Response: class C

Query: Quick check: band for Y02495 (designed binder, From library Ylib002Naive.I) MGSSHHHHHHGSSLAEAKEAAIAELDSKGVGAEEIKEIQGAMLVEIVQLLKQAILAVLPA
Response: class A

Query: Quick check: band for Y02697 (designed binder, Y02444 with I9L) MGSSHHHHHHGSSLAEAKEAALAELDSKGVGAVEIKQIQEALLVEIVQLLKQAILAVLPA
Response: class C

Query: Quick check: band for Y02699 (designed binder, Y02444 with Q26E) MGSSHHHHHHGSSLAEAKEAAIAELDSKGVGAVEIKQIEEALLVEIVQLLKQAILAVLPA
Response: class B

Query: Quick check: band for Y02698 (designed binder, Y02444 with K15Y) MGSSHHHHHHGSSLAEAKEAAIAELDSYGVGAVEIKQIQEALLVEIVQLLKQAILAVLPA
Response: class C
